test: in vivo; conditions: mouse, 0.5 mg/kg, read-out: MRTinf
Property measured: MRT inf
Kindly write the number and append the unit.

IN: Please report MRT inf for the following compound: CC(=O)NC1C(OC2C(C)OC(OC3C=CC=CC=CC=CC=CC=CC=CC(C)C(O)C(C)C(C)OC(=O)CC(O)CC(O)CC(O)CCC(O)C(O)CC4(O)CC(O)C(C(=O)O)C(C3)O4)C(O)C2N)OC(CO)C(O)C1O (stereo not shown) [NPP B1, Nystatin-like Pseudonocardia polyene B1]
OUT: 17 h

====

assay: in vivo; conditions: mouse, 0.5 mg/kg, read-out: t1/2 (converted)
Property measured: half-life (h)
Give the quantity in h, number only.

IN: Please report half-life for the following molecule: CC(=O)NC1C(OC2C(C)OC(OC3C=CC=CC=CC=CC=CC=CC=CC(C)C(O)C(C)C(C)OC(=O)CC(O)CC(O)CC(O)CCC(O)C(O)CC4(O)CC(O)C(C(=O)O)C(C3)O4)C(O)C2N)OC(CO)C(O)C1O (stereo not shown) [NPP B1, Nystatin-like Pseudonocardia polyene B1]
OUT: 12.3

====

experiment: in vivo; conditions: mouse, 0.5 mg/kg, read-out: Vss
Property measured: Vd

IN: Please report Vd for the following compound: CC(=O)NC1C(OC2C(C)OC(OC3C=CC=CC=CC=CC=CC=CC=CC(C)C(O)C(C)C(C)OC(=O)CC(O)CC(O)CC(O)CCC(O)C(O)CC4(O)CC(O)C(C(=O)O)C(C3)O4)C(O)C2N)OC(CO)C(O)C1O (stereo not shown) [NPP B1, Nystatin-like Pseudonocardia polyene B1]
OUT: 0.6 L/kg

====

test: in vivo; details: male, SD, rat, plasma, iv, 0.5 mg/kg
Property measured: Vd (L/kg)
Give the quantity in L/kg, number only.

IN: Please report Vd for the following compound: "C[C@@H]1[C@H](O)[C@@H](C)/C=C/C=C/C=C/C=C/C=C/C=C/C=C/[C@H](O[C@@H]2O[C@H](C)[C@@H](O)[C@H](N)[C@@H]2O)C[C@@H]2O[C@](O)(C[C@@H](O)C[C@@H](O)[C@H](O)CC[C@@H](O)C[C@@H](O)CC(=O)O[C@H]1C)C[C@H](O)[C@H]2C(=O)O"
OUT: 3.5

====

assay: in vivo; details: mouse, 0.5 mg/kg, read-out: AUC0-inf
Property measured: AUC(0-inf) (ng·h/mL)
Give the quantity in ng·h/mL, number only.

IN: Please report AUC(0-inf) for the following compound: CC(=O)NC1C(OC2C(C)OC(OC3C=CC=CC=CC=CC=CC=CC=CC(C)C(O)C(C)C(C)OC(=O)CC(O)CC(O)CC(O)CCC(O)C(O)CC4(O)CC(O)C(C(=O)O)C(C3)O4)C(O)C2N)OC(CO)C(O)C1O (stereo not shown)
OUT: 15100

====

assay: Microsomal (metabolic) stability; type: in vitro ADME; details: pH 7.4; human liver microsomes 1.0 mg/ml
Property measured: half-life at 1 µM

The cases that follow already have their half-life at 1 µM on record.
Molecule: C[C@@H]1[C@H](O)[C@@H](C)/C=C/C=C/C=C/C=C/C=C/C=C/C=C/[C@H](O[C@@H]2O[C@H](C)[C@@H](O)[C@H](N)[C@@H]2O)C[C@@H]2O[C@](O)(C[C@@H](O)C[C@@H](O)[C@H](O)CC[C@@H](O)C[C@@H](O)CC(=O)O[C@H]1C)C[C@H](O)[C@H]2C(=O)O [Amphotericin B, amphotericin B]
half-life at 1 µM: > 1.33 h
//
Molecule: CC(=O)NC1C(OC2C(C)OC(OC3C=CC=CC=CC=CCCC=CC=CC(C)C(O)C(C)C(C)OC(=O)CC(O)CC(O)CC(O)CCC(O)C(O)CC4(O)CC(O)C(C(=O)O)C(C3)O4)C(O)C2N)OC(CO)C(O)C1O (stereo not shown) [NPP A1]
half-life at 1 µM: > 1.33 h
//
Molecule: CC(=O)NC1C(OC2C(C)OC(OC3C=CC=CC=CC=CC=CC=CC=CC(C)C(O)C(C)C(C)OC(=O)CC(O)CC(O)CC(O)CCC(O)C(O)CC4(O)CC(O)C(C(=O)O)C(C3)O4)C(O)C2N)OC(CO)C(O)C1O (stereo not shown) [NPP B1, Nystatin-like Pseudonocardia polyene B1]
half-life at 1 µM: 0.608 h

Moving on to the next molecule.
IN: Please report half-life at 1 µM for the following molecule: C[C@@H]1[C@H](O)[C@@H](C)/C=C/C=C/CC/C=C/C=C/C=C/C=C/[C@H](O[C@@H]2O[C@H](C)[C@@H](O)[C@H](N)[C@@H]2O)C[C@@H]2O[C@](O)(C[C@@H](O)[C@H](O)CC[C@@H](O)C[C@@H](O)C[C@@H](O)CC(=O)O[C@H]1C)C[C@H](O)[C@H]2C(=O)O [Nystatin A1, nystatin A1]
OUT: > 1.33 h
